Details: in methanol, 293.15 K
metric_name: solubility (mole fraction)
Reply with just the number.

Entry O=c1ccc(-c2ccccc2)n[nH]1 — recorded solubility (mole fraction) = 0.0022

###

Conditions: in methanol, 303.15 K
metric_name: solubility (mole fraction)
Reply with just the number.

Entry O=c1ccc(-c2ccccc2)n[nH]1 — recorded solubility (mole fraction) = 0.00309

###

Conditions: in isopropanol, 278.15 K
metric_name: solubility (mole fraction)

Entry O=c1ccc(-c2ccccc2)n[nH]1 — recorded solubility (mole fraction) = 0.00411

###

Conditions: in water, 303.15 K
metric_name: solubility (mole fraction)
Reply with just the number.

Entry O=c1ccc(-c2ccccc2)n[nH]1 — recorded solubility (mole fraction) = 7.08e-06

###

Conditions: in ethanol, 303.15 K
metric_name: solubility (mole fraction)

Entry O=c1ccc(-c2ccccc2)n[nH]1 — recorded solubility (mole fraction) = 0.00547

###

Settings: in methanol, 313.15 K
metric_name: solubility (mole fraction)
Reply with just the number.

Entry O=c1ccc(-c2ccccc2)n[nH]1 — recorded solubility (mole fraction) = 0.00432

###

Settings: in isopropanol, 313.15 K
metric_name: solubility (mole fraction)
Reply with just the number.

Entry O=c1ccc(-c2ccccc2)n[nH]1 — recorded solubility (mole fraction) = 0.0126

###

Settings: in ethanol, 283.15 K
metric_name: solubility (mole fraction)
Reply with just the number.

Entry O=c1ccc(-c2ccccc2)n[nH]1 — recorded solubility (mole fraction) = 0.00289

###

Settings: in isopropanol, 298.15 K
metric_name: solubility (mole fraction)

Entry O=c1ccc(-c2ccccc2)n[nH]1 — recorded solubility (mole fraction) = 0.00795

###

Settings: in water, 308.15 K
metric_name: solubility (mole fraction)
Reply with just the number.

Entry O=c1ccc(-c2ccccc2)n[nH]1 — recorded solubility (mole fraction) = 8.51e-06

###

Details: in water, 288.15 K
metric_name: solubility (mole fraction)
Reply with just the number.

Entry O=c1ccc(-c2ccccc2)n[nH]1 — recorded solubility (mole fraction) = 3.86e-06

###

Conditions: in ethylene glycol, 288.15 K
metric_name: solubility (mole fraction)
Reply with just the number.

Entry O=c1ccc(-c2ccccc2)n[nH]1 — recorded solubility (mole fraction) = 0.00445

###

Conditions: in water, 278.15 K
metric_name: solubility (mole fraction)
Reply with just the number.

Entry O=c1ccc(-c2ccccc2)n[nH]1 — recorded solubility (mole fraction) = 2.53e-06

###

Details: in isopropanol, 288.15 K
metric_name: solubility (mole fraction)
Reply with just the number.

Entry O=c1ccc(-c2ccccc2)n[nH]1 — recorded solubility (mole fraction) = 0.00579

###

Conditions: in ethanol, 313.15 K
metric_name: solubility (mole fraction)
Reply with just the number.

Entry O=c1ccc(-c2ccccc2)n[nH]1 — recorded solubility (mole fraction) = 0.00736

###

Conditions: in ethanol, 278.15 K
metric_name: solubility (mole fraction)
Reply with just the number.

Entry O=c1ccc(-c2ccccc2)n[nH]1 — recorded solubility (mole fraction) = 0.00242
